Values were extracted from patent EP4813463A2.

assay: Brain pharmacokinetic studies in rats; assay type: in vivo, Sprague-Dawley rats; conditions: Sprague-Dawley, rat; brain, rats, iv, 3 mg/kg, solution
READOUT_TYPE: half-life
State the result as a value with its unit after it.

State the recorded half-life for this entry: `COC(=O)c1cnc(NC(=O)C2CC2)cc1Nc1cnn2ccc([C@H](OC)C(F)(F)F)c(OC)c12`
0.25 h

State the recorded half-life for this entry: COC(=O)c1cnc(NC(=O)C2CC2)cc1Nc1nn(C)c2ccc([C@H](O)C(F)(F)F)c(OC)c12 [Example 48A]
2.04 h

State the recorded half-life for this entry: `COC(=O)c1cnc(NC(=O)C2CC2)cc1Nc1cnn2ccc([C@H](O)C(F)(F)F)c(OC)c12`
1.99 h

State the recorded half-life for this entry: COC(=O)c1cnc(NC(=O)C2CC2)cc1Nc1nn(C)c2ccc([C@H](OC)C(F)(F)F)c(OC)c12 [Example 45B]
2.23 h

###

assay: Caco-2 cell permeability; assay type: in vitro ADME; settings: human; Caco-2, 10.0 µM, no p-gp inhibitor, 90 mins, B to A
READOUT_TYPE: Papp B→A at 90 min, 10 µM (×10⁻⁶ cm/s)
A number alone suffices; assume ×10⁻⁶ cm/s.

State the recorded Papp B→A at 90 min, 10 µM for this entry: [2H]C([2H])([2H])NC(=O)c1cnc(NC(=O)C2CC2)cc1Nc1cnn2ccc(C(C)O)c(OC)c12 (stereo not shown)
37.6

State the recorded Papp B→A at 90 min, 10 µM for this entry: COC(=O)c1cnc(NC(=O)C2CC2)cc1Nc1nn(C)c2ccc([C@H](O)C(F)(F)F)c(OC)c12 [Example 48A]
29

State the recorded Papp B→A at 90 min, 10 µM for this entry: `[2H]C([2H])([2H])NC(=O)c1cnc(Nc2ccn(C)n2)cc1Nc1cnn2ccc([C@H](O)C(F)(F)F)c(OC)c12`
47.4

State the recorded Papp B→A at 90 min, 10 µM for this entry: `[2H]C([2H])([2H])NC(=O)c1cnc(NC(=O)C2CC2)nc1Nc1cnn2ccc([C@H](O)C(F)(F)F)c(OC)c12`
46.5

State the recorded Papp B→A at 90 min, 10 µM for this entry: `[2H]C([2H])([2H])NC(=O)c1cnc(Nc2cc(C)nc(C)n2)cc1Nc1cnn2ccc([C@H](O)C(F)(F)F)c(OC)c12`
62.3

State the recorded Papp B→A at 90 min, 10 µM for this entry: COC(=O)c1cnc(NC(=O)C2CC2)cc1Nc1nn(C)c2ccc([C@H](OC)C(F)(F)F)c(OC)c12 [Example 45B]
5.65

State the recorded Papp B→A at 90 min, 10 µM for this entry: [2H]C([2H])([2H])NC(=O)c1cnc(NC(=O)C2CC2)cc1Nc1nn(C)c2ccc([C@H](O)C(F)(F)F)c(OC)c12 [Example 49A]
66.6

###

Assay: Pharmacokinetic study in rats
Type: in vivo
Settings: rat, plasma; Sprague-Dawley rats, intravenous, 3 mg/kg, solution
Method: Pharmacokinetic profiles of test articles were evaluated in fasted mouse, Sprague-Dawley rats and Beagle dogs. After dosing, blood samples were collected at each time point. For IV injection group, time points were set at 5, 15, 30 min, and then 1, 2, 4, 8 and 24 hours after dosing. […] Plasma was obtained within 1 hours of blood collection by centrifugation at 8000×g and 4 °C for 6 minutes, and then stored at -20 °C until analyzed by LC/MS/MS for quantification. […]
READOUT_TYPE: AUC
State the result as a value with its unit after it.

State the recorded AUC for this entry: [2H]C([2H])([2H])NC(=O)c1cnc(NC(=O)C2CC2)cc1Nc1nn(C)c2ccc([C@H](OC([2H])([2H])[2H])C(F)(F)F)c(OC)c12 [Example 55A]
3650 ng·h/mL

###

biological target: TYK2-JH2 domain (Homo sapiens); construct: JAK1-JH2 domain or TYK2-JH2 domain enzyme in assay buffer; experiment: Binding activity test for JH2 domain of TYK2 (Tb-antibody/tracer FRET); conditions: JH2 domain enzyme; 60 min at 25°C, then 4°C overnight; read-out: TYK2 JH2 Binding IC50
Sequence (P29597 589-875 limits assumed): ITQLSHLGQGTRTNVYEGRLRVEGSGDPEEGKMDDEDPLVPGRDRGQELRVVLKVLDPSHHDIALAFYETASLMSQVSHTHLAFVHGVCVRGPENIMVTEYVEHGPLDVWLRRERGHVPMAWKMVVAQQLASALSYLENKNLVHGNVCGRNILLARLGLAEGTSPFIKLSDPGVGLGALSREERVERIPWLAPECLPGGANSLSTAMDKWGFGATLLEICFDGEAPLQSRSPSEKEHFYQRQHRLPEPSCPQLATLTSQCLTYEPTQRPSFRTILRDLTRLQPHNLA
Exercise: state measured log10 of IC50 for each of the molecules provided.
Values reflect log10 of reported IC50 (pM).

What log10 of IC50 appears in the records for this molecule with TYK2-JH2 domain (Homo sapiens)? `COC(=O)c1cnc2cc1Nc1cc(cc(-c3ccn(C)n3)c1OC)CCOCc1cccc(n1)N2`
3.08

What log10 of IC50 appears in the records for this molecule with TYK2-JH2 domain (Homo sapiens)? `[2H]C([2H])([2H])NC(=O)c1cnc(NC(=O)C2CC2)cc1Nc1cn(C)c2ccc(CC)c(OC)c12`
2.52

What log10 of IC50 appears in the records for this molecule with TYK2-JH2 domain (Homo sapiens)? CCC(F)(F)c1cnc(NC(=O)C2CC2)cc1Nc1nn(C)c2ccc(C(O)C(F)(F)F)c(OC)c12 (centres unmarked) [Example 129]
2.67

What log10 of IC50 appears in the records for this molecule with TYK2-JH2 domain (Homo sapiens)? `[2H]C([2H])([2H])C([2H])([2H])C(=O)c1cnc(NC(=O)C2CC2)cc1Nc1nn(C)c2ccc([C@H](O)C(F)(F)F)c(OC)c12`
1.82

What log10 of IC50 appears in the records for this molecule with TYK2-JH2 domain (Homo sapiens)? [2H]C([2H])([2H])OC(c1ccc2c(c(Nc3cc(NC(=O)C4CC4)ncc3C(=O)OC)nn2CCOC)c1OC)C(F)(F)F (single isomer, unassigned) [Example 157B]
3.15

What log10 of IC50 appears in the records for this molecule with TYK2-JH2 domain (Homo sapiens)? [2H]C([2H])([2H])NC(=O)c1cnc(NC(=O)[C@@H]2C[C@@H]2F)cc1Nc1cnn2cnc(C(C)C(F)(F)F)c(OC)c12 (some centres unmarked)
2.88

What log10 of IC50 appears in the records for this molecule with TYK2-JH2 domain (Homo sapiens)? `COCCn1ccc(Nc2cc(Nc3nn(C)c4ccc([C@H](OC)C(F)(F)F)c(OC)c34)c(C(=O)OC)cn2)n1`
2.49

What log10 of IC50 appears in the records for this molecule with TYK2-JH2 domain (Homo sapiens)? `[2H]C([2H])([2H])NC(=O)c1cnc(Nc2cc(CN3CCOCC3)n(C)n2)cc1Nc1nn(C)c2ccc([C@H](OC)C(F)(F)F)c(OC)c12`
2.15

What log10 of IC50 appears in the records for this molecule with TYK2-JH2 domain (Homo sapiens)? COC(=O)c1cnc(NC(=O)C2CC2)cc1Nc1cnn2ccc(C(C)C(F)(F)F)c(OC)c12 (centres unmarked)
3.09

What log10 of IC50 appears in the records for this molecule with TYK2-JH2 domain (Homo sapiens)? COC(=O)c1cnc(NC(=O)C2CC2)cc1Nc1nn(C)c2ccc(C(O)C3(F)CC3)c(OC)c12 (centres unmarked)
2.41

What log10 of IC50 appears in the records for this molecule with TYK2-JH2 domain (Homo sapiens)? `CCC(F)(F)c1cnc(NC(=O)C2CC2)cc1Nc1cccc(-c2cnn(C)n2)c1OC`
2.33

What log10 of IC50 appears in the records for this molecule with TYK2-JH2 domain (Homo sapiens)? [2H]C([2H])([2H])CC(=O)c1cnc(NC(=O)C2CC2)cc1Nc1nn(C)c2ccc([C@@H](O)C(F)(F)F)c(OC)c12 [Example 54B]
2.64

What log10 of IC50 appears in the records for this molecule with TYK2-JH2 domain (Homo sapiens)? `CNC(=O)c1nnc(NC(=O)C2CC2)cc1Nc1cn(C)c2cccc(OC)c12`
3.37

What log10 of IC50 appears in the records for this molecule with TYK2-JH2 domain (Homo sapiens)? [2H]C([2H])([2H])NC(=O)c1cnc(NC(=O)C2CC2)cc1Nc1nn(C)c2ccc(C(C)C(F)(F)F)c(OC)c12 (centres unmarked)
2.12

###

assay: Microsomal metabolic stability assay; type: in vitro ADME; conditions: human, liver microsomes, pH 7.4; 0.5 mg/mL microsomal protein, 1 µM test article, 2 mM NADPH; read-out: Human LM Clint
READOUT_TYPE: microsomal CLint at 1 µM
State the result as a value with its unit after it.

State the recorded microsomal CLint at 1 µM for this entry: `[2H]C([2H])([2H])NC(=O)c1cnc(NC(=O)[C@@H]2C[C@@H]2F)cc1Nc1cnn2ccc(C#N)c(OC)c12`
22 µL/min/mg

State the recorded microsomal CLint at 1 µM for this entry: `[2H]C([2H])([2H])NC(=O)c1cnc(NC(=O)[C@@H]2C[C@@H]2F)cc1Nc1cnn2ccc(COC)c(OC)c12`
12.3 µL/min/mg

State the recorded microsomal CLint at 1 µM for this entry: `[2H]C([2H])([2H])NC(=O)c1cnc(Nc2ccn(C)n2)cc1Nc1cnn2ccc([C@H](O)C(F)(F)F)c(OC)c12`
22.8 µL/min/mg

State the recorded microsomal CLint at 1 µM for this entry: [2H]C([2H])([2H])O[C@@H](c1ccc2c(c(Nc3cc(NC(=O)C4CC4)ncc3C(=O)OC)nn2C)c1OC)C(F)(F)F [Example 50B]
10.9 µL/min/mg

State the recorded microsomal CLint at 1 µM for this entry: [2H]C([2H])(C)C(=O)c1cnc(NC(=O)C2CC2)cc1Nc1nn(C)c2ccc(C(O)C(F)(F)F)c(OC)c12 (stereo not shown)
26.2 µL/min/mg

State the recorded microsomal CLint at 1 µM for this entry: `[2H]C([2H])([2H])NC(=O)c1cnc(NC(=O)C2CC2)cc1Nc1cnn2ccc(CO)c(OC)c12`
4.5 µL/min/mg

State the recorded microsomal CLint at 1 µM for this entry: [2H]C([2H])([2H])NC(=O)c1cnc(NC(=O)C2CC2)cc1Nc1nn(C)c2ccc([C@H](O)C(F)(F)F)c(OC)c12 [Example 49A]
19.3 µL/min/mg
